Target: human M2 receptor (Homo sapiens, UniProt P08172)
Sequence (P08172 1-466): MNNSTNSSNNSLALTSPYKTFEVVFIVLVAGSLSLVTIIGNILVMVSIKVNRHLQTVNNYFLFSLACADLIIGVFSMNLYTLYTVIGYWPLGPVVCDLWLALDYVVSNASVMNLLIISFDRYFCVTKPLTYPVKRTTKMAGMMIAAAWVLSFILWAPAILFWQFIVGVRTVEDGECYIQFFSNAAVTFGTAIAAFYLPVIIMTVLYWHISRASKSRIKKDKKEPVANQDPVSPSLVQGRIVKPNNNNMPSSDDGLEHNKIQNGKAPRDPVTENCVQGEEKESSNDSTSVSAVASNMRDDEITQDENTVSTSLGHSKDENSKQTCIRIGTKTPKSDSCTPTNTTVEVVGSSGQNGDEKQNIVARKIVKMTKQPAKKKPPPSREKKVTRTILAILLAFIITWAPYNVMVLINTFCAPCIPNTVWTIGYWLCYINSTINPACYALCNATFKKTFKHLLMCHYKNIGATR
Assay: Functional M2-GIRK1/4 activation test: positive cooperativity (alpha factor)
Conditions: shift of acetylcholine dose-response curve (Allosteric EC50 shift); CHO-DUKX-M2-GIRK cells
REPORTED ENDPOINT: Cooperativity (alpha factor)

{"COMPOUND": "CCC(NC(=O)c1cn(-c2ncc(F)cc2F)c2nc(N3C[C@@H](O)CC3=O)ccc2c1=O)C(F)(F)C(F)(F)F (single isomer, unassigned)", "Cooperativity (alpha factor)": 41}
{"COMPOUND": "CC[C@@H](NC(=O)c1cn(-c2ncccc2F)c2nc(N3C[C@@H](O)CC3=O)ccc2c1=O)C(F)(F)F", "Cooperativity (alpha factor)": 47}
{"COMPOUND": "CCC(COC(F)(F)F)NC(=O)c1cn(-c2ncc(F)cc2F)c2nc(N3C[C@@H](O)CC3=O)ccc2c1=O (single isomer, unassigned) [Example 19]", "Cooperativity (alpha factor)": 38}

----------
target: human M2 receptor (Homo sapiens, UniProt P08172); experiment: Functional M2-GIRK1/4 activation test: allosteric potency (EC50) and efficiency; details: Receptor activity EC50, CHO-DUKX-M2-GIRK cells; acetylcholine at EC20; in some cases mean of two or more determinations
REPORTED ENDPOINT: EC50 (nM)

{"COMPOUND": "CC[C@H](NC(=O)c1cn(-c2ncc(F)cc2F)c2nc(N3CC(O)C(C)C3=O)ccc2c1=O)C(F)(F)F (single isomer, unassigned) [Example 110]", "TESTED ON": "human M2 receptor (Homo sapiens, UniProt P08172)", "UNITS TEXT": "nM", "MEASURED VALUE": 190}

[A] O=C(NC(C(F)(F)F)C(F)(F)F)c1cn(-c2ncc(F)cc2F)c2nc(N3CC4CC4(O)C3)ccc2c1=O (racemic) [Example 57]
[B] CC[C@@H](NC(=O)c1cn(-c2ncc(F)cc2Cl)c2nc(N3CC4CC4(O)C3)ccc2c1=O)C(F)(F)F (mixture of isomers)
-- ask Please let me know which one, A or B , has a lower measured EC50 value. Bench note: the answer is the label of the chosen record.
-- reply A
(A: 10 nM, B: 74 nM)

[a] CC[C@@H](NC(=O)c1cn(-c2ncc(F)cc2F)c2nc(N3C[C@@H](O)[C@H](O)C3)ccc2c1=O)C(F)(F)F
[b] CC(C)(NC(=O)c1cn(-c2ncc(F)cc2F)c2nc(N3CC(CO)(CO)C3)ccc2c1=O)C(F)(F)C(F)(F)F
[c] O=C(N[C@H](C1CC1)C(F)(F)F)c1cn(-c2ncc(F)cc2F)c2nc(N3CCNC3=O)ccc2c1=O
-- ask rank_up(items): orders items by reported EC50 in ascending numerical order. List the labels, following the order given in the request.
-- reply c, b, a
(c: 87 nM, b: 130 nM, a: 295 nM)
